# Assayed system: HER4 (Homo sapiens, UniProt Q15303)
# Sequence (Q15303 26-1308): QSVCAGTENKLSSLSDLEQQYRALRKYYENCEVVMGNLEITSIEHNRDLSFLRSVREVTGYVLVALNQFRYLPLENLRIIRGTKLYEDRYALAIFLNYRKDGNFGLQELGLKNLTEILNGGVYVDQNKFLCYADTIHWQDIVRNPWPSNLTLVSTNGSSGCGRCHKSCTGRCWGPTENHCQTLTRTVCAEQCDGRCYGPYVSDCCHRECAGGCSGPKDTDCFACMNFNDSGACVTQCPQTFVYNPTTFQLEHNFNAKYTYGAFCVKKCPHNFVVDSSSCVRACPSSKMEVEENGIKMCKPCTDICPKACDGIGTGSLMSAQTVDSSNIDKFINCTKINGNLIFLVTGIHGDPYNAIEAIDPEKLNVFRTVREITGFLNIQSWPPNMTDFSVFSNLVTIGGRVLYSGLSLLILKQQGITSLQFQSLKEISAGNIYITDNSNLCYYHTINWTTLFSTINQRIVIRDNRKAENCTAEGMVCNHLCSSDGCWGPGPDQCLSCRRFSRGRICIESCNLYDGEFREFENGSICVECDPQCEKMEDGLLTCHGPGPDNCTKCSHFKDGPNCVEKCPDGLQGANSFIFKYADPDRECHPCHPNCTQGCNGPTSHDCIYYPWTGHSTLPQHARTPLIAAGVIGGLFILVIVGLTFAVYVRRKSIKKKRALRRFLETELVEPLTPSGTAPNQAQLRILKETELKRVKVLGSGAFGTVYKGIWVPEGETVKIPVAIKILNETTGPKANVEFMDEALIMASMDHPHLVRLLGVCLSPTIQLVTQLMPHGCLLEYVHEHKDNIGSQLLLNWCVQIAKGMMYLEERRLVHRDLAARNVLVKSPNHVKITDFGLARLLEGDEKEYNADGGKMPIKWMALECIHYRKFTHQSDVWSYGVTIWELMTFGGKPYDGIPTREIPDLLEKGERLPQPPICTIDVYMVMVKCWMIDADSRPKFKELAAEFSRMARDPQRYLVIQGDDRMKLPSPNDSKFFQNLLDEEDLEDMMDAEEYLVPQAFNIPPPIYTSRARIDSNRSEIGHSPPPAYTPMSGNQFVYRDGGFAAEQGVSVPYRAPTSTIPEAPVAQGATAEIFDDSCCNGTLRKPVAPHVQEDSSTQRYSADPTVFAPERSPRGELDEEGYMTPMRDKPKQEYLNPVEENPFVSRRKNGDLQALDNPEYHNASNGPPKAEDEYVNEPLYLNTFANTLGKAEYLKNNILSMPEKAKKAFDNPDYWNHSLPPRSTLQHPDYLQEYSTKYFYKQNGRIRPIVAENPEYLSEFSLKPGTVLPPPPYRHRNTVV
# Experiment notes: Kinase profiling (radiometric filter-binding)
# Format: biochemical
# Reported conditions: HER4, 1 µM inhibitor; read-out: Residual activity, %
# Experimental: Kinase selectivity profiling was performed using the commercial service provided by the MRC PPU International Centre for Kinase Profiling (Dundee, UK) using a radiometric filter-binding assay. Kinases used for analysis were of human origin. The ATP concentration applied for inhibition measurements was at or below the ATP KM value of the particular PK. […] Residual activities were expressed as the percentage of retained activity compared to the control without inhibitor.
Square brackets hold non-standard residues; d marks the D form. Peptide text beside a SMILES is read from it. * marks the point of attachment. X3 = O=C(CCCCCNCc1nc2c(sc3cc(Br)cnc32)c(=O)[nH]1)*
I'd be grateful if you could share measured remaining activity at 1 µM for these entries.
Numeric only. Scale: %

Query: Entry under review: N=C(N)NCCC[C@@H](NC(=O)CNC(=O)[C@@H](CCCNC(=N)N)NC(=O)[C@@H](CCCNC(=N)N)NC(=O)CCCCCCCNCc1nc2c(sc3cc(Br)cnc32)c(=O)[nH]1)C(=O)N[C@H](CCCCN)C(N)=O . Reported remaining activity at 1 µM?
Response: 111

Query: Next entry: N=C(N)NCCC[C@@H](NC(=O)CNC(=O)[C@@H](CCCNC(=N)N)NC(=O)[C@@H](CCCNC(=N)N)NC(=O)Cn1cc(CNCc2nc3c(sc4ccc(Br)cc43)c(=O)[nH]2)nn1)C(=O)N[C@H](CCCCN)C(N)=O
Response: 105

Query: And what about the compound N=C(N)NCCC[C@@H](NC(=O)CCCCCNC(=O)Cn1cnc2c(I)c(I)c(I)c(I)c21)C(=O)N[C@H](CCCNC(=N)N)C(=O)N[C@H](CCCNC(=N)N)C(=O)N[C@H](CCCNC(=N)N)C(=O)N[C@H](CCCNC(=N)N)C(=O)N[C@H](CCCNC(=N)N)C(=O)N[C@H](CCCCN)C(N)=O ?
Response: 120

Query: Try this compound too: N=C(N)NCCC[C@@H](NC(=O)CCCCCNCc1nc2c(sc3cc(Br)cnc32)c(=O)[nH]1)C(=O)N[C@H](CCCNC(=N)N)C(=O)N[C@H](CCCNC(=N)N)C(=O)N[C@H](CCCNC(=N)N)C(=O)N[C@H](CCCNC(=N)N)C(=O)N[C@H](CCCNC(=N)N)C(=O)N[C@H](CCCCN)C(N)=O [ARC-3126, BPTP-Ahx-(D-Arg)6-D-Lys-NH2] (X3-[dR][dR][dR][dR][dR][dR][dK]-NH2)
Response: 110

Query: Query N=C(N)NCCC[C@@H](NC(=O)CNC(=O)[C@@H](CCCNC(=N)N)NC(=O)[C@@H](CCCNC(=N)N)NC(=O)CCCCCCCNCc1nc2c(sc3ccc(Br)cc32)c(=O)[nH]1)C(=O)N[C@H](CCCCN)C(N)=O next
Response: 114
